The reported numbers originate from patent US12059422B2.

target: PI3K delta (Homo sapiens); construct: purchased Millipore, Billerica, MA, USA; test: Luciferase-based luminescence assay (KinaseGlo), PI3K delta enzymatic activity; assay type: biochemical; conditions: ratio of enzymatic IC50 against PI3Kα over IC50 against PI3Kδ
Sequence (O00329 whole entry, species assumed): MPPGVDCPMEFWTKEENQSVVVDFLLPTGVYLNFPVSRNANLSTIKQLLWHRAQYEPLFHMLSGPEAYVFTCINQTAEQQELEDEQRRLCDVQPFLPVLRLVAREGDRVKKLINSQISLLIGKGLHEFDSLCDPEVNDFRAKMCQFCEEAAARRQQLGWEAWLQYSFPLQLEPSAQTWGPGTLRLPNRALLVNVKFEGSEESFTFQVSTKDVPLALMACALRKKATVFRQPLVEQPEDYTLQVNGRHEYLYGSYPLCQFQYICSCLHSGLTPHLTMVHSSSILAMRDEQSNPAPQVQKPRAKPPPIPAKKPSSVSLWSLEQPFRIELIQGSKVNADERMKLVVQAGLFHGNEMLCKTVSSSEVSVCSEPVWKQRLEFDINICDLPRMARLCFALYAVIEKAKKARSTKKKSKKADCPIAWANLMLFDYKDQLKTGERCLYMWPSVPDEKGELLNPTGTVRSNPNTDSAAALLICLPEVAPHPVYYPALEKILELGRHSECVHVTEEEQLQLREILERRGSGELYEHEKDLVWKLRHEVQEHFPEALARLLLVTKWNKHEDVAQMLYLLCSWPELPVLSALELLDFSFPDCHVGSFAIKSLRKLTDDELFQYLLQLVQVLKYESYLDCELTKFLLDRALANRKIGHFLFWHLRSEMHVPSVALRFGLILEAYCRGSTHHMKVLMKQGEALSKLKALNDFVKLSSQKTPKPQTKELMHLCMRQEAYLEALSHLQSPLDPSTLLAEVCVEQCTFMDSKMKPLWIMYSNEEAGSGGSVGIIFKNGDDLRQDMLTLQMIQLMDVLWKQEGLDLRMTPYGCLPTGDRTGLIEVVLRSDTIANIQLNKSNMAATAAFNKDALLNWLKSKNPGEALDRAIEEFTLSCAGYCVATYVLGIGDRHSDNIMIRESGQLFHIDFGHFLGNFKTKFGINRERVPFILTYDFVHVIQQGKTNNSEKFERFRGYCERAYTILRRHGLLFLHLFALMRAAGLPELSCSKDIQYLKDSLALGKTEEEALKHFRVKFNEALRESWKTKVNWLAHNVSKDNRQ
Sequence (P27986 whole entry partner, species assumed): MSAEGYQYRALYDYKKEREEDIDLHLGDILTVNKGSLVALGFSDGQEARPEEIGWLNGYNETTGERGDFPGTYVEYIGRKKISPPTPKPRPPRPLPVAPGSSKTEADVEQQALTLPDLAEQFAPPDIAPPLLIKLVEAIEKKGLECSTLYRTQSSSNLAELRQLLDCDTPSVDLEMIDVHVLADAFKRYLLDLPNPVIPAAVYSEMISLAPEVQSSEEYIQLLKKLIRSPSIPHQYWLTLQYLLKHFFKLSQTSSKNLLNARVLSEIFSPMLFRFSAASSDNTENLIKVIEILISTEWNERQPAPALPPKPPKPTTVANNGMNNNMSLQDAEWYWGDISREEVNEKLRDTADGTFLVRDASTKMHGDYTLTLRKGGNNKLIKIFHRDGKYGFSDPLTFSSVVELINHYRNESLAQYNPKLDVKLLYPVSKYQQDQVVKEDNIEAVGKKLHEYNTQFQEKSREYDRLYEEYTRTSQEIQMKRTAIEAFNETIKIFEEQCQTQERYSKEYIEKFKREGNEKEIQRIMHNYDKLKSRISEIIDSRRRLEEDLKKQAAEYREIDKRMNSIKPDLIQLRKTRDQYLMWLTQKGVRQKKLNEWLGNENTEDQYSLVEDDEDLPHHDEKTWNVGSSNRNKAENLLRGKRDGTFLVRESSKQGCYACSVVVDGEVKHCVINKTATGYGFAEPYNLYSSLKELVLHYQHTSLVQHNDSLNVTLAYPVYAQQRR
Recorded Endpoint: α/δ ratio

Use the examples below as a reference point.
Smiles Str	Test System	α/δ ratio
CC(C)(Cc1ccc(Cl)cc1)Nc1nc(N2CCOCC2)nc(-n2c(C(F)F)nc3ccccc32)n1	PI3K delta (Homo sapiens)	B’
CC(C)(Cc1ccccc1Cl)Nc1nc(N2CCOCC2)nc(-n2c(C(F)F)nc3ccccc32)n1	PI3K delta (Homo sapiens)	A’
CC(C)(Cc1ccccc1-c1cccnc1F)Nc1nc(N2CCOCC2)nc(-n2c(C(F)F)nc3ccccc32)n1	PI3K delta (Homo sapiens)	A’
CC(C)(Cc1ccc(F)cc1F)Nc1nc(N2CCOCC2)nc(-n2c(C(F)F)nc3ccccc32)n1	PI3K delta (Homo sapiens)	A’
CC(C)(Cc1ccccc1-c1ccncc1)Nc1nc(N2CCOCC2)nc(-n2c(C(F)F)nc3ccccc32)n1	PI3K delta (Homo sapiens)	A’
CC(C)(Cc1c(F)cccc1F)Nc1nc(N2CCOCC2)nc(-n2c(C(F)F)nc3ccccc32)n1	PI3K delta (Homo sapiens)	C’

Which α/δ ratio is reported for this compound? CC(C)(Cc1ccc2ccccc2c1)Nc1nc(N2CCOCC2)nc(-n2c(C(F)F)nc3ccccc32)n1 D’
